Measured ECM AVRG (average KD) accompanies every entry in the list below.
Test System: Matrix-associated proTGFβ1 (hLTBP1-proTGFβ1 and hLTBP3-proTGFβ1)
Procedure Text: MSD-SET, hIgG4

Please give the documented ECM AVRG (average KD) of Ab31 (antibody, V domains shown) VH: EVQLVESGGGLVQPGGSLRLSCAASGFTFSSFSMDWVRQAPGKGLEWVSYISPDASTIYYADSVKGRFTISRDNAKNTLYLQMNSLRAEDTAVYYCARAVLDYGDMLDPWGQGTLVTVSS VL: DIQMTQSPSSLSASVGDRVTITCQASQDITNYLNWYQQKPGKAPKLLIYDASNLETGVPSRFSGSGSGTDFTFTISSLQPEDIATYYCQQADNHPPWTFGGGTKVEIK
0.017 nM

Give recorded ECM AVRG (average KD). Ab22 (antibody, V domains shown) VH: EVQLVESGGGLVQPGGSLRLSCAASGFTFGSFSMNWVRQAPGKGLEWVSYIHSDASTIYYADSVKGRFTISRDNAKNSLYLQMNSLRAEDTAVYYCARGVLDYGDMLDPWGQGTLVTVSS VL: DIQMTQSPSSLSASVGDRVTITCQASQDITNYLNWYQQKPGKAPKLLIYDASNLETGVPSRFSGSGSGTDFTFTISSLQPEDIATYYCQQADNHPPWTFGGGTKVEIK
0.042 nM

Give recorded ECM AVRG (average KD). Ab4 (antibody, IgG4, V domains shown) VH: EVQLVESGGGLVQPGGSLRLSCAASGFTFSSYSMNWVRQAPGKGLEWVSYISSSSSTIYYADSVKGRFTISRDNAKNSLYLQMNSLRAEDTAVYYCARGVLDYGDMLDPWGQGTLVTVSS VL: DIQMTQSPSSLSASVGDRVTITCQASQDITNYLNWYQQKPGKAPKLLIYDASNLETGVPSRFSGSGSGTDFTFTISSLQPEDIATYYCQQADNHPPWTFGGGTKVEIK
5.05 nM

Now consider a different binder.
State its ECM AVRG (average KD): Ab26 (antibody, V domains shown) VH: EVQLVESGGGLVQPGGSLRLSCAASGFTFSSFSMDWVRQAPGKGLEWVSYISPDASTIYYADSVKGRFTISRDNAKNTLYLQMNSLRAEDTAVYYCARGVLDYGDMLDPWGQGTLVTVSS VL: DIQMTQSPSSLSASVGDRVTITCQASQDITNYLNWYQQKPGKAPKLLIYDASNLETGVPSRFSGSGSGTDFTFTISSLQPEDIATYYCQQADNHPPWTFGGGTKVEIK
0.026 nM
